Tested target: Cruzipain (Trypanosoma cruzi) (UniProt P25779)
Sequence (P25779 123-467 limits assumed): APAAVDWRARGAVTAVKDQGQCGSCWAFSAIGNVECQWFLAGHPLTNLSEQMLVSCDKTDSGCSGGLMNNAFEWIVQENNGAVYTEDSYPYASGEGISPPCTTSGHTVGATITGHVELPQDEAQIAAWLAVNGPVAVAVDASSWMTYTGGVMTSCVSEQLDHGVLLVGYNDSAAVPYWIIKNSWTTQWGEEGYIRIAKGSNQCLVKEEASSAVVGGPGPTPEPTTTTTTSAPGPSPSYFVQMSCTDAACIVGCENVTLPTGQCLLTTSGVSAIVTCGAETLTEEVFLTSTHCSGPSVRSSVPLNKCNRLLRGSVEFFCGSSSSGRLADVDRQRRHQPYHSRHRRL
Protocol text: Inhibition of Trypanosoma cruzi cruzain assessed as second-order rate constant
Endpoint name: K

Answered examples (3):
# Compound structure string, K
rows = [
    ("CCOC(=O)/C=C/C(=O)[C@H](CC(C)C)NC(=O)[C@H](CC(C)C)NC(=O)N1CCOCC1", "10600 M⁻¹ s⁻¹"),
    ("CCOC(=O)/C=C/C(=O)[C@H](CCc1ccccc1)NC(=O)[C@H](CC(C)C)NC(=O)OCc1ccccc1", "60800 M⁻¹ s⁻¹"),
    ("CCOC(=O)/C=C/C(=O)[C@H](C)NC(=O)[C@H](CC(C)C)NC(=O)OCc1ccccc1", "14400 M⁻¹ s⁻¹"),
]

Field K (entry "CCOC(=O)/C=C/[C@@H](O)[C@H](CCc1ccccc1)NC(=O)[C@H](Cc1ccccc1)NC(=O)N1CCOCC1" ) reads 3600 M⁻¹ s⁻¹

====

Tested target: Rhodesain (Trypanosoma brucei rhodesiense) (UniProt Q95PM0)
Protocol text: Inhibition of Trypanosoma brucei rhodesiense rhodesain assessed as second-order rate constant using Cbz-Phe-Arg-AMC as substrate measured for 30 mins by fluorescence method
Endpoint name: log10 K (log10 of the value in M⁻¹ s⁻¹)
Answers are given as log10 of K in M⁻¹ s⁻¹.

# Compound structure string, Endpoint name, Reported
measured = [
    ("CCOC(=O)/C=C/C(=O)[C@H](C)NC(=O)[C@H](CC(C)C)NC(=O)OCc1ccccc1", "log10 K", 4.15),
]

Field log10 K (entry "CCOC(=O)/C=C/C(=O)[C@H](CCc1ccccc1)NC(=O)[C@H](Cc1ccccc1)NC(=O)OCc1ccccc1" ) reads 6.10

Field log10 K (entry "CCOC(=O)/C=C/[C@@H](O)[C@H](C)NC(=O)[C@H](Cc1ccccc1)NC(=O)OCc1ccccc1" ) reads 4.04

====

Tested target: Rhodesain (Trypanosoma brucei rhodesiense, UniProt Q95PM0)
Sequence (Q95PM0 whole entry): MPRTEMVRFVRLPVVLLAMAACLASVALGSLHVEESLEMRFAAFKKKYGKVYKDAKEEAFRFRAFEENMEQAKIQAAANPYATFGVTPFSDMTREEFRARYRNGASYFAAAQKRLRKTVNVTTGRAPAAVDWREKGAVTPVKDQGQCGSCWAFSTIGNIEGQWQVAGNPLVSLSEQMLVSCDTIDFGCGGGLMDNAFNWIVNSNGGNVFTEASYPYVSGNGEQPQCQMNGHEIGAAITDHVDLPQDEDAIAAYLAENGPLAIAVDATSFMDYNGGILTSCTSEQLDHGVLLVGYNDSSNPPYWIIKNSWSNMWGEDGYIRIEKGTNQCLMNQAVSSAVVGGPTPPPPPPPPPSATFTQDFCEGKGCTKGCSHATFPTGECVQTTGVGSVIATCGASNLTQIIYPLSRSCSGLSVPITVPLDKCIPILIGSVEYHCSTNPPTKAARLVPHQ
Assign labels as follows, please: T for IC50 below 0.1 µM; F for IC50 equal to or exceeding 0.1 µM.

Record excerpt, results attached:
# Compound structure string, Category
data = [
    ("CCOC(=O)/C=C/C(=O)[C@H](CCc1ccccc1)NC(=O)[C@H](Cc1ccccc1)NC(=O)OCc1ccccc1", "T"),
    ("CCOC(=O)/C=C/C(=O)[C@H](CC(C)C)NC(=O)[C@H](CC(C)C)NC(=O)N1CCOCC1", "F"),
    ("CCOC(=O)/C=C/C(=O)[C@@H](CCc1ccccc1)NC(=O)[C@H](Cc1ccccc1)NC(=O)N1CCOCC1", "F"),
]

Request: Please state whether IC50 is below 0.1 µM for "CCOC(=O)/C=C/C(=O)[C@H](CC(C)C)NC(=O)[C@H](Cc1ccccc1)NC(=O)OCc1ccccc1"
Result: T

Request: Please state whether IC50 is below 0.1 µM for "CCOC(=O)/C=C/C(=O)[C@H](CCc1ccccc1)NC(=O)[C@H](CC(C)C)NC(=O)N1CCOCC1"
Result: F

====

Tested target: Cathepsin B (Homo sapiens, UniProt P07858)
Protocol text: Inhibition of human cathepsin B assessed as second order rate constant using Cbz-Phe-Arg-AMC as substrate
Each entry below carries its recorded log10 of K.
Answers are given as log10 of K in M⁻¹ s⁻¹.

Answered examples (5):
# Compound structure string, Reported
records = [
    ("CCOC(=O)/C=C/C(=O)[C@H](CCc1ccccc1)NC(=O)[C@H](Cc1ccccc1)NC(=O)OCc1ccccc1", 4.66),
    ("CCOC(=O)/C=C/[C@H](O)[C@H](CCc1ccccc1)NC(=O)[C@H](Cc1ccccc1)NC(=O)OCc1ccccc1", 1.15),
    ("CCOC(=O)/C=C/C(=O)[C@H](C)NC(=O)[C@H](Cc1ccccc1)NC(=O)OCc1ccccc1", 4.67),
    ("CCOC(=O)/C=C/C(=O)[C@@H](CC(C)C)NC(=O)[C@H](Cc1ccccc1)NC(=O)OCc1ccccc1", 5.07),
    ("CCOC(=O)/C=C/C(=O)[C@H](CCc1ccccc1)NC(=O)[C@H](CC(C)C)NC(=O)N1CCOCC1", 4.50),
]

Read the next record carefully.
For "CCOC(=O)/C=C/C(=O)[C@H](CC(C)C)NC(=O)[C@H](CC(C)C)NC(=O)N1CCOCC1" on Cathepsin B (Homo sapiens, UniProt P07858), measured log10 of K was 4.69

====

Tested target: Procathepsin L (Homo sapiens, UniProt P07711)
Endpoint name: Ki (µM)
Only the number, expressed in µM, is required.

Field Ki (entry "CCOC(=O)/C=C/C=C/C(=O)[C@H](CCc1ccccc1)NC(=O)[C@H](Cc1ccccc1)NC(=O)N1CCOCC1" ) reads 780

====

Tested target: Rhodesain (Trypanosoma brucei rhodesiense)
Protocol text: Inhibition of Trypanosoma brucei rhodesiense rhodesain using Cbz-Phe-Arg-AMC as substrate measured for 30 mins by fluorescence method
Endpoint name: pIC50
The scale used: pIC50 is minus the common logarithm of the concentration in molar units.

# Compound structure string, Reported
measured = [
    ("CCOC(=O)/C=C/C=C/C(=O)[C@H](CCc1ccccc1)NC(=O)[C@H](Cc1ccccc1)NC(=O)N1CCOCC1", 6.25),
    ("CCOC(=O)/C=C/C(=O)[C@@H](CC(C)C)NC(=O)[C@H](Cc1ccccc1)NC(=O)OCc1ccccc1", 7.52),
    ("CCOC(=O)/C=C/[C@@H](O)[C@H](C)NC(=O)[C@H](Cc1ccccc1)NC(=O)OCc1ccccc1", 4.82),
]

Read the next record carefully.
Field pIC50 (entry "CCOC(=O)/C=C/C(=O)[C@H](CCc1ccccc1)NC(=O)[C@H](Cc1ccccc1)NC(=O)N1CCOCC1" ) reads 6.82

====

Tested target: Rhodesain (Trypanosoma brucei rhodesiense)
Protocol text: Inhibition of Trypanosoma brucei rhodesiense rhodesain at 20 uM using Cbz-Phe-Arg-AMC as substrate measured for 30 mins by fluorescence method relative to control
Each entry below carries its recorded inhibition.
Only the number, expressed in %, is required.

Answered examples (6):
# Compound structure string, Reported
data = [
    ("CCOC(=O)/C=C/[C@H](O)[C@H](CCc1ccccc1)C(=O)N[C@@H](CC(C)C)C(=O)OC", 1),
    ("CCOC(=O)/C=C/C(=O)[C@@H](CCc1ccccc1)NC(=O)[C@H](Cc1ccccc1)NC(=O)N1CCOCC1", 99),
    ("CCOC(=O)/C=C/C(=O)[C@@H](CC(C)C)NC(=O)[C@H](Cc1ccccc1)NC(=O)OCc1ccccc1", 100),
    ("CCOC(=O)/C=C/C(=O)[C@H](CCc1ccccc1)NC(=O)[C@H](Cc1ccccc1)NC(=O)OCc1ccccc1", 100),
    ("CCOC(=O)/C=C/[C@@H](O)[C@H](CCc1ccccc1)NC(=O)[C@H](Cc1ccccc1)NC(=O)OCc1ccccc1", 63),
    ("CCOC(=O)/C=C/[C@@H](O)[C@H](CCc1ccccc1)NC(=O)[C@H](CC(C)C)NC(=O)OCc1ccccc1", 0),
]

Read the next record carefully.
Field inhibition (entry "O=C(/C=C/[C@@H](O)[C@H](CCc1ccccc1)NC(=O)[C@H](Cc1ccccc1)NC(=O)OCc1ccccc1)NCc1ccccc1" ) reads 1

====

Tested target: Cathepsin B (Homo sapiens, UniProt P07858)
Protocol text: Inhibition of human cathepsin B assessed as second order rate constant using Cbz-Phe-Arg-AMC as substrate
Endpoint name: K (M⁻¹ s⁻¹)
Only the number, expressed in M⁻¹ s⁻¹, is required.

Answered examples (4):
# Compound structure string, Endpoint name, Reported
records = [
    ("CCOC(=O)/C=C/C(=O)[C@H](CCc1ccccc1)NC(=O)[C@H](CC(C)C)NC(=O)OCc1ccccc1", "K", 42400),
    ("CCOC(=O)/C=C/C(=O)[C@H](CCc1ccccc1)NC(=O)[C@H](Cc1ccccc1)NC(=O)N1CCOCC1", "K", 97000),
    ("CCOC(=O)/C=C/C(=O)[C@H](C)NC(=O)[C@H](CC(C)C)NC(=O)OCc1ccccc1", "K", 85500),
    ("CCOC(=O)/C=C/C(=O)[C@@H](CCc1ccccc1)NC(=O)[C@H](Cc1ccccc1)NC(=O)N1CCOCC1", "K", 108000),
]

Field K (entry "CCOC(=O)/C=C/C(=O)[C@H](CC(C)C)NC(=O)[C@H](Cc1ccccc1)NC(=O)OCc1ccccc1" ) reads 138000

====

Tested target: Procathepsin L (Homo sapiens)
Protocol text: Inhibition of human cathepsin L at 20 uM using Cbz-Phe-Arg-AMC as substrate relative to control
Sequence (P07711 114-333 limits assumed): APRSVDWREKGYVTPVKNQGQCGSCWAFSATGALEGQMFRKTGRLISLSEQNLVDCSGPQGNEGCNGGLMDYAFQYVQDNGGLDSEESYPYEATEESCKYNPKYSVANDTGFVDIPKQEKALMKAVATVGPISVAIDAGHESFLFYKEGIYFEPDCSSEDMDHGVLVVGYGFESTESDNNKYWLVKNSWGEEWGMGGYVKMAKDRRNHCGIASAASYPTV
Endpoint name: inhibition (%)
Only the number, expressed in %, is required.

# Compound structure string, Endpoint name, Display unit, Reported
measured = [
    ("CCOC(=O)/C=C/[C@H](O)[C@H](CCc1ccccc1)C(=O)N[C@@H](CC(C)C)C(=O)OC", "inhibition", "%", 0),
]

Field inhibition (entry "CCOC(=O)/C=C/[C@H](O)[C@H](CCc1ccccc1)NC(=O)[C@H](Cc1ccccc1)NC(=O)OCc1ccccc1" ) reads 58

Field inhibition (entry "CCOC(=O)/C=C/C(=O)[C@H](CCc1ccccc1)NC(=O)[C@H](CC(C)C)NC(=O)OCc1ccccc1" ) reads 100

Field inhibition (entry "CCOC(=O)/C=C/[C@@H](O)[C@H](CCc1ccccc1)NC(=O)[C@H](Cc1ccccc1)NC(=O)OCc1ccccc1" ) reads 57
